experimental.target: GST-Nv-NF-kB (Cys allele) (Nematostella vectensis, UniProt E5G601 2-411)
Sequence: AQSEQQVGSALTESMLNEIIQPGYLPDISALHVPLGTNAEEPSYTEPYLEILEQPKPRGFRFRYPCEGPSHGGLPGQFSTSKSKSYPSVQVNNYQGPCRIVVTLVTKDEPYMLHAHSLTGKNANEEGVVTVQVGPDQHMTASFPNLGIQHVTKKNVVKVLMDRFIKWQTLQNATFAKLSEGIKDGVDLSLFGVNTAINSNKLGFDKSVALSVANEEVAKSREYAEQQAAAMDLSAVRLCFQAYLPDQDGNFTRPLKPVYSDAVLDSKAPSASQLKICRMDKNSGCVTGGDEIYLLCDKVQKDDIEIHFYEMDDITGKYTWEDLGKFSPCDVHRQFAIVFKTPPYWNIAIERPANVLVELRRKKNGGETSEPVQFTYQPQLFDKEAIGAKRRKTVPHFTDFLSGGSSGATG
procedure.summary: protein-binding microarray (PBM); PBM: ~300 nM protein, 6 mM HEPES pH 7.8, 80 mM KCl, 0.5 mM EDTA, 0.5 mM EGTA, 6% glycerol, 35 ng/ul poly-dIdC, 1% milk, 1 h, room temperature; Ap Aiptasia and Nv Nematostella (sea anemones) / Co Capsaspora / Aq Amphimedon (sponge) / Dm Drosophila / Hu human; RHD is the Rel homology domain; high values mean tight binding
assay.context: dsDNA, one strand shown
Kindly state binding signal for each of the entries shown.
Answers are plain numbers, in z-score.

Completed entries (count: 3):
Find the recorded binding signal belonging to "CCGATTAACATCAAGGAAAAACCTGATGTTAATCGGGTCTTGATTCGCTTGACGCTGCTG" and report it.
1.07

"CCGATTAACATCAAAAATTTCCCTGATGTTAATCGGGTCTTGATTCGCTTGACGCTGCTG" , same question.
8.92

"CCGATTAACATCAGGGAGTACCCTGATGTTAATCGGGTCTTGATTCGCTTGACGCTGCTG" , same question.
4.14

Take each entry in turn and give its binding signal.
1. CCGATTAACATCAGGACTGTCCCTGATGTTAATCGGGTCTTGATTCGCTTGACGCTGCTG
2. CCGATTAACATCAGAATTCCCACTGATGTTAATCGGGTCTTGATTCGCTTGACGCTGCTG
3. CCGATTAACATCAGAAATGGGAATGATGTTAATCGGGTCTTGATTCGCTTGACGCTGCTG
4. CCGATTAACATCAAAATCCCCCGTGATGTTAATCGGGTCTTGATTCGCTTGACGCTGCTG
5. CCGATTAACATCATAGTCCCATGTGATGTTAATCGGGTCTTGATTCGCTTGACGCTGCTG
6. CCGATTAACATCACATTGGGAAATGATGTTAATCGGGTCTTGATTCGCTTGACGCTGCTG
7. CCGATTAACATCAGAATTTCCCATGATGTTAATCGGGTCTTGATTCGCTTGACGCTGCTG

[5.38, 4.12, 2.45, 9.33, 2.41, 2.26, 5.46]
